Molecular target: MMP1 (Homo sapiens (Human), UniProt P03956)
Sequence (P03956 100-469, species assumed): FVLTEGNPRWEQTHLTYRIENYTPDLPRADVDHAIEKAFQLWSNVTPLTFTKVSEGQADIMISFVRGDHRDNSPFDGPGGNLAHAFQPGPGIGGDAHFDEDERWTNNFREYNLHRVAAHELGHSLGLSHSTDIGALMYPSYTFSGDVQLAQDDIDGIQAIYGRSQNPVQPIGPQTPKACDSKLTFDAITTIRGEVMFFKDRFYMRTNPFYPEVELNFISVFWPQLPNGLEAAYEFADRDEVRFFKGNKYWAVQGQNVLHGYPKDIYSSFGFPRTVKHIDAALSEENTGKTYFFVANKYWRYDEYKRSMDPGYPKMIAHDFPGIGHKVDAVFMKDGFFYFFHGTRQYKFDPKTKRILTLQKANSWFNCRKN
Assay: MMP activity assay (fluorogenic substrate), MMP1
Format: biochemical
Settings: Table 2; read-out: MM1 IC50
Where a name gives a salt, the structure may show the parent alone.
quantityMeasured: IC50 (µM)

Check out these entries, answers already filled in.
CCOC(=O)c1csc(CN(Cc2ccncc2)Cc2ccc(OCc3ccccc3)cc2)n1 ... 325
CCOC(=O)c1csc(CN(Cc2ccc(F)cc2)Cc2ccc(OCc3cccnc3)cc2)n1 ... 185
O=C(O)c1csc(CN(Cc2ccc(OCc3ccccc3)cc2)Cc2cccc(F)c2)n1 ... 6

P = O=C(O)c1c[nH]c(CN(Cc2ccc(F)cc2)Cc2ccc(OCc3ccccc3)cc2)n1 [Compound 30]
Q = O=C(O)c1csc(CN(Cc2ccc(F)cc2)Cc2ccc(OCc3ccncc3)cc2)n1
Inquiry: Endpoint returns the identifier whose IC50 is numerically larger, either P or Q . Reply briefly: the label of your chosen item.
Reply text: Q

a = O=C(O)c1c[nH]c(CN(Cc2ccc(F)cc2)Cc2ccc(OCc3ccccc3)cc2)n1 [Compound 30 HCl]
b = O=C(O)c1csc(CN(Cc2ccc(OCc3ccccc3)cc2)Cc2cccnc2)n1
Inquiry: Returns: the label, a or b , whose recorded IC50 is the lower number. Which one? Tell me its label.
Reply text: a

---

MMP9 (Homo sapiens, UniProt P14780) data, read-out IC50
quantityMeasured: IC50 (µM)

Recorded results for 3 compounds are shown here.
O=C(O)c1csc(CN(Cc2ccccc2)Cc2ccccc2)n1 [Compound 7] ... 13
CCOC(=O)c1csc(CN(Cc2ccc(OCc3ccccc3)cc2)Cc2cccnc2)n1 [Compound 16] ... 280
O=C(O)c1csc(CN(Cc2ccc(F)cc2)Cc2ccc(OCc3ccccc3)cc2)n1 [ALBH-known, reference compound] ... 15

I = O=C(c1cnc(CCc2ccccc2)[nH]1)N1CCCC1 [Compound 38]
II = O=C(O)c1csc(CN(Cc2ccc(F)cc2)Cc2ccc(OCc3cccnc3)cc2)n1 [Compound 1]
Inquiry: Identify the entry with the smaller IC50: I or II . Write the label of whichever entry you select.
Reply text: II

---

Target: MMP-2 (Rattus norvegicus (Rat), UniProt P33436)
Sequence (P33436 110-662): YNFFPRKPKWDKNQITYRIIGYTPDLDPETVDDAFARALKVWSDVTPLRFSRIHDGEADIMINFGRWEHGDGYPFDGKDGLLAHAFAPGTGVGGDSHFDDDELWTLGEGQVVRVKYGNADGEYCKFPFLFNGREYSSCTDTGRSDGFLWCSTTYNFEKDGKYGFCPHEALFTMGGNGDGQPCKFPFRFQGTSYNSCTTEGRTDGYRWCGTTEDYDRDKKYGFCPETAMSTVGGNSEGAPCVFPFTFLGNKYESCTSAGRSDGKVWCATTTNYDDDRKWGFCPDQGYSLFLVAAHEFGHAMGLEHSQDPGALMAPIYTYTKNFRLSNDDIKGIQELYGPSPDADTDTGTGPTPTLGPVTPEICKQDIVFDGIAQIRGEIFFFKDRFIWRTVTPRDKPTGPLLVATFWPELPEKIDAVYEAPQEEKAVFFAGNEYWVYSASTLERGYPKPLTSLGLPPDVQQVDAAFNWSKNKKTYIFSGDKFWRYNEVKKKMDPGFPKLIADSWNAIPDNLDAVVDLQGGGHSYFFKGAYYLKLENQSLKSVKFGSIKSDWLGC
Experiment: In vitro zymography assay (gelatin), MMP-2
Assay type: biochemical
Details: 1 μM; % ± SD
quantityMeasured: % inhibition MMP-2 (72 kDa)

O=C(O)c1csc(CN(Cc2ccc(F)cc2)Cc2ccc(OCc3ccccc3)cc2)n1 [ALBH-known, reference compound] ... No inhibition
O=C(O)c1c[nH]c(CN(Cc2ccc(F)cc2)Cc2ccc(OCc3ccccc3)cc2)n1 ... No inhibition
O=C(O)c1csc(CN(Cc2ccc(OCc3ccccc3)cc2)Cc2cccc(F)c2)n1 ... No inhibition

---

Molecular target: MMP13 (Homo sapiens (Human), UniProt P45452)
Assay: MMP activity assay (fluorogenic substrate), MMP13 catalytic domain
Type: biochemical
Conditions: Table 2; read-out: MMP13 IC50
quantityMeasured: IC50 (µM)

Recorded results for 4 compounds are shown here.
O=C(O)c1csc(CN(Cc2ccncc2)Cc2ccc(OCc3ccccc3)cc2)n1 [Compound 13] ... 1.5
O=C(O)c1c[nH]c(CN(Cc2ccc(F)cc2)Cc2ccc(OC(c3ccccc3)c3ccccc3)cc2)n1 [Compound 22] ... 0.28
O=C(O)c1csc(CN(Cc2ccc(F)cc2)Cc2ccc(OCc3ccncc3)cc2)n1 [Compound 9] ... 1.24
O=C(O)c1csc(CN(Cc2ccc(OCc3ccncc3)cc2)Cc2cccnc2)n1 [Compound 12] ... 8.5

a = O=C(O)c1cnc(CCc2ccccc2)[nH]1 [Compound 36]
b = Cn1cc(C(F)(F)F)nc1CN(Cc1ccc(F)cc1)Cc1ccc(OCc2ccccc2)cc1 [Compound 26]
Inquiry: Looking only at measured IC50, which entry is lower, a or b ? Lab log: write the label of the selected item as the result.
Reply text: b
(b: 34 µM, a: 300 µM)

---

Molecular target: MMP9 (Homo sapiens, UniProt P14780)
quantityMeasured: IC50

Example cases with answers are listed next.
O=C(O)c1csc(CN(Cc2ccc(OCc3ccccc3)cc2)Cc2cccnc2)n1 [Compound 14] ... > 500 µM
O=C(O)c1csc(CN(Cc2ccc(OCc3ccncc3)cc2)Cc2cccnc2)n1 [Compound 12] ... > 500 µM

Attention now turns to another entry.
Inquiry: Enter reported IC50 observed with MMP9 (Homo sapiens, UniProt P14780) for O=C(O)c1csc(CN(Cc2ccc(OCc3cccnc3)cc2)Cc2cccnc2)n1 [Compound 10]
Reply text: > 500 µM
